Listed here: items and their measured log(permeability).
Details: pampa, pH 7.4, 4 h, 10000 µM
Description: Effective permeability of the compound in prisma HT buffer at 10 mM at pH 7.4 after 4 hrs by PAMPA
outcomeMeasure: log(permeability)

> print(dat)
                             linenotation  reading
1  O=C(Nc1ccc2[nH]ccc2n1)c1ccc(Cl)c(Cl)c1    -3.97
2   O=C(Nc1ccc2[nH]ccc2n1)c1ccc(Cl)c(F)c1     -3.9
3   O=C(Nc1ccc2[nH]ccc2n1)c1ccc(F)c(Cl)c1    -3.96
4  O=C(Nc1cc2cc[nH]c2cn1)c1ccc(Cl)c(Cl)c1    -3.96

---

Reported logD at 1.5 h is given for each of the following compounds.
Assay: physchem
Settings: n-octanol/water, pH 7.4
outcomeMeasure: logD at 1.5 h

> print(dat)
                             linenotation  outcomemeasure  reading
1   O=C(Nc1ccc2[nH]ccc2n1)c1ccc(Cl)c(F)c1   logD at 1.5 h     2.69
2  O=C(Nc1cc2cc[nH]c2cn1)c1ccc(Cl)c(Cl)c1   logD at 1.5 h     3.04
3   O=C(Nc1ccc2[nH]ccc2n1)c1ccc(F)c(Cl)c1   logD at 1.5 h     2.32
4  O=C(Nc1ccc2[nH]ccc2n1)c1ccc(Cl)c(Cl)c1   logD at 1.5 h     3.19

---

Assay: in vitro
Parameters: dose or concentration left out as unconfirmed
Conditions: PAMPA, pH 7.4
Description: Effective permeability of the compound in prisma HT buffer at 10 mM at pH 7.4 after 4 hrs by PAMPA
Entries annotated with measured Papp at 4 h
outcomeMeasure: Papp at 4 h

> print(dat)
                             linenotation  outcomemeasure         reading
1   O=C(Nc1ccc2[nH]ccc2n1)c1ccc(Cl)c(F)c1     Papp at 4 h  127 ×10⁻⁶ cm/s
2  O=C(Nc1ccc2[nH]ccc2n1)c1ccc(Cl)c(Cl)c1     Papp at 4 h  107 ×10⁻⁶ cm/s
3  O=C(Nc1cc2cc[nH]c2cn1)c1ccc(Cl)c(Cl)c1     Papp at 4 h  111 ×10⁻⁶ cm/s
4   O=C(Nc1ccc2[nH]ccc2n1)c1ccc(F)c(Cl)c1     Papp at 4 h  110 ×10⁻⁶ cm/s

---

solubility kinetic at 1.5 h, 500 µM for assorted molecules
Experiment: Kinetic aqueous solubility of compound at 500 uM at pH 2 after 90 mins by UV-vis spectrophotometric analysis
Assay type: physicochemical
Conditions: buffer, pH 2; read-out: Kinetic_solubility
outcomeMeasure: solubility kinetic at 1.5 h, 500 µM (µM)

> print(dat)
                             linenotation  reading
1  O=C(Nc1ccc2[nH]ccc2n1)c1ccc(Cl)c(Cl)c1      471
2   O=C(Nc1ccc2[nH]ccc2n1)c1ccc(F)c(Cl)c1      501
3  O=C(Nc1cc2cc[nH]c2cn1)c1ccc(Cl)c(Cl)c1      426
4   O=C(Nc1ccc2[nH]ccc2n1)c1ccc(Cl)c(F)c1      391

---

Conditions: buffer, pH 7.4, 1.5 h, 500 µM
outcomeMeasure: log(Kinetic_solubility)

> print(dat)
                             linenotation  reading
1   O=C(Nc1ccc2[nH]ccc2n1)c1ccc(Cl)c(F)c1    -4.03
2   O=C(Nc1ccc2[nH]ccc2n1)c1ccc(F)c(Cl)c1    -3.92
3  O=C(Nc1ccc2[nH]ccc2n1)c1ccc(Cl)c(Cl)c1     -4.4
4  O=C(Nc1cc2cc[nH]c2cn1)c1ccc(Cl)c(Cl)c1    -4.19

---

# pIC50 per record follows
Target: Amine oxidase [flavin-containing] B (Homo sapiens)
Experiment: biochemical
Description: Inhibition of human recombinant MAO-B expressed in baculovirus infected BTI-TN-5B1-4 insect cells using p-tyramine as substrate preincubated for 15 mins and measured after 45 mins by resorufin-based fluorescence assay
pIC50: −log10 of the molar value.
outcomeMeasure: pIC50

> print(dat)
                               linenotation  outcomemeasure  reading
1    O=C(Nc1cc2cc[nH]c2cn1)c1ccc(Cl)c(Cl)c1           pIC50     7.54
2     O=C(Nc1cc2cc[nH]c2cn1)c1ccc(Cl)c(F)c1           pIC50     6.92
3  CC(=O)N[C@H]1CC(=O)N(c2ccc(OCc3cccc(F)c3)cc2)C1           pIC50     8.23

---

This section presents compounds with their documented IC50 values.
Target: Amine oxidase [flavin-containing] A (Homo sapiens)
Sequence (P21397 whole entry): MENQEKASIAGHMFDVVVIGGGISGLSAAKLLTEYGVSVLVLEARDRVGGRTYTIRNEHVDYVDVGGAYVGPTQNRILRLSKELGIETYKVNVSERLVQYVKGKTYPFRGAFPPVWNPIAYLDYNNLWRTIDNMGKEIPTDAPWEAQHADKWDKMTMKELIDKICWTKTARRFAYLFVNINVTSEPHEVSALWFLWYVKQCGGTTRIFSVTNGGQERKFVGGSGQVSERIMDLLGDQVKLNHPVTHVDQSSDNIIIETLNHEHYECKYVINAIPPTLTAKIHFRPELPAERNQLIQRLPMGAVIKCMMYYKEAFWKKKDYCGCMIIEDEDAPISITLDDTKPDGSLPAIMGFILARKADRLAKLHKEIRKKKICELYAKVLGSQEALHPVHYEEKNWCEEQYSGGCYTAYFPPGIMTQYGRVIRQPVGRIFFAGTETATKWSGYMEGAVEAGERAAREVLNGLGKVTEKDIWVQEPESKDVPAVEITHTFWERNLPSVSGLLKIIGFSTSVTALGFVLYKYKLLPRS
outcomeMeasure: IC50

> print(dat)
                             linenotation  reading
1  O=C(Nc1ccc2[nH]ccc2n1)c1ccc(Cl)c(Cl)c1  > 10 µM
2   O=C(Nc1cc2cc[nH]c2cn1)c1ccc(F)c(Cl)c1  > 10 µM
3   O=C(Nc1ccc2[nH]ccc2n1)c1ccc(F)c(Cl)c1  > 10 µM

---

Biological target: Amine oxidase [flavin-containing] B (Homo sapiens, UniProt P27338)
Sequence (P27338 whole entry): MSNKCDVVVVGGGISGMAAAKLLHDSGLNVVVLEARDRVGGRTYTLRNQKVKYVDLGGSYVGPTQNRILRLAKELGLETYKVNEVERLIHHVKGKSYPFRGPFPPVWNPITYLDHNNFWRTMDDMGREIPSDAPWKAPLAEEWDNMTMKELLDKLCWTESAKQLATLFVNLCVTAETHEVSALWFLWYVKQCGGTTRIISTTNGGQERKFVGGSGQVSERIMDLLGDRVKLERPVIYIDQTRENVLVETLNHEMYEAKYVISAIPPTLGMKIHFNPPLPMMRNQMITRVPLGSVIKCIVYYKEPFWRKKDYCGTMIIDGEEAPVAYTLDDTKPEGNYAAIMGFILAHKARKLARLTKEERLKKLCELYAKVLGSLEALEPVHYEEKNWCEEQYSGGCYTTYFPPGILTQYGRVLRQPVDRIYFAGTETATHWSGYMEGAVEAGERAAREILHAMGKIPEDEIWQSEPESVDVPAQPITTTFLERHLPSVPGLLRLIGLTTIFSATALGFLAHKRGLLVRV
Assay: Inhibition of human recombinant MAO-B expressed in baculovirus infected BTI-TN-5B1-4 insect cells using p-tyramine as substrate preincubated for 15 mins and measured after 45 mins by Cheng-Prusoff equation analysis
pKi: −log10 of the molar value.
Answer label 0 if pKi is under 8, and label 1 if it is 8 or more.

> print(dat)
                             linenotation    label
1     O=C(Nc1ccc2[nH]ncc2c1)c1c(F)cccc1Cl  label 0
2    O=C(Nc1cc2cc[nH]c2cn1)c1ccc(F)c(F)c1  label 0
3    O=C(Nc1ccc2[nH]ccc2n1)c1ccc(F)c(F)c1  label 0
4  O=C(Nc1ccc2[nH]ncc2c1)c1ccc(Cl)c(Cl)c1  label 1
5   O=C(Nc1ccc2[nH]ccc2n1)c1ccc(F)c(Cl)c1  label 1
6   O=C(Nc1ccc2[nH]ccc2n1)c1ccc(Cl)c(F)c1  label 1

---

Reported log10(Ki) values are given for each entry in this list.
Molecular target: Amine oxidase [flavin-containing] B (Homo sapiens, UniProt P27338)
Test: Inhibition of human recombinant MAO-B expressed in baculovirus infected BTI-TN-5B1-4 insect cells using p-tyramine as substrate preincubated for 15 mins and measured after 45 mins by Cheng-Prusoff equation analysis
outcomeMeasure: log10(Ki) (log10 of the value in µM)

> print(dat)
                              linenotation  reading
1     O=C(Nc1ccc2[nH]ncc2c1)c1cccc(Cl)c1Cl     0.06
2  O=C(Cc1ccc(Cl)c(Cl)c1)Nc1ccc2[nH]ccc2c1    -0.41
3   O=C(Nc1cc2cc[nH]c2cn1)c1ccc(Cl)c(Cl)c1    -1.89
4    O=C(Nc1cc2cc[nH]c2cn1)c1ccc(F)c(Cl)c1    -1.50
5    O=C(Nc1cc2cc[nH]c2cn1)c1ccc(Cl)c(F)c1    -1.27

---

Test: physchem
Settings: buffer, pH 7.4
The following compounds are listed with their measured solubility kinetic at 1.5 h, 500 µM values.
outcomeMeasure: solubility kinetic at 1.5 h, 500 µM (µM)

> print(dat)
                             linenotation                       outcomemeasure  endpointunit  reading
1   O=C(Nc1ccc2[nH]ccc2n1)c1ccc(F)c(Cl)c1  solubility kinetic at 1.5 h, 500 µM            µM      119
2  O=C(Nc1ccc2[nH]ccc2n1)c1ccc(Cl)c(Cl)c1  solubility kinetic at 1.5 h, 500 µM            µM     39.8
3   O=C(Nc1ccc2[nH]ccc2n1)c1ccc(Cl)c(F)c1  solubility kinetic at 1.5 h, 500 µM            µM     93.8
4  O=C(Nc1cc2cc[nH]c2cn1)c1ccc(Cl)c(Cl)c1  solubility kinetic at 1.5 h, 500 µM            µM     65.1

---

Parameter: log(Kinetic_solubility). Scope: all listed entries.
Experiment: Kinetic aqueous solubility of compound at 500 uM at pH 5.5 after 90 mins by UV-vis spectrophotometric analysis
Format: physicochemical
Conditions: buffer, pH 5.5, 1.5 h, 500 µM
outcomeMeasure: log(Kinetic_solubility)

> print(dat)
                             linenotation           outcomemeasure  reading
1  O=C(Nc1ccc2[nH]ccc2n1)c1ccc(Cl)c(Cl)c1  log(Kinetic_solubility)    -4.37
2  O=C(Nc1cc2cc[nH]c2cn1)c1ccc(Cl)c(Cl)c1  log(Kinetic_solubility)    -4.16
3   O=C(Nc1ccc2[nH]ccc2n1)c1ccc(F)c(Cl)c1  log(Kinetic_solubility)    -3.96
4   O=C(Nc1ccc2[nH]ccc2n1)c1ccc(Cl)c(F)c1  log(Kinetic_solubility)    -4.09
